Where do the numbers come from? From ChEMBL document CHEMBL1201862.

A set of compounds tested on HCT-15, with measured log10 of GI50:
Short version: log10 scale, GI50, µM.

Asked: # lookup: log10 of GI50 of "COc1cc2c(c(OC)c1OC)-c1ccc(SC)c(=O)cc1[C@@H](O)CC2"
Given back: -3.22

Next:
Asked: # lookup: log10 of GI50 of "Cc1[nH]nc(C(=O)N/N=C/c2cccs2)c1/N=N\N(C)C"
Given back: 1.14

Asked: # lookup: log10 of GI50 of "O=C(NCc1ccccc1)c1cc2ccccc2o/c1=N\c1cccc(C(F)(F)F)c1"
Given back: 1.57

Asked: # lookup: log10 of GI50 of O=C(CCC(NC(=O)OCc1ccccc1)C(=O)OCc1ccccc1)Nc1ccc(OCc2ccccc2)cc1 (configuration not stated)
Given back: 1.12

Asked: # lookup: log10 of GI50 of "COc1cc(C(CC(OC)OC)=C(C#N)C#N)cc(OC)c1OC"
Given back: 1.23

Asked: # lookup: log10 of GI50 of "COc1ccc2c(c1)OCC1=C2Oc2ccccc2C1"
Given back: 1.49

Asked: # lookup: log10 of GI50 of C/C1=C\[C@H](C)C[C@H](C)OC(=O)C[C@H](c2ccc(O)cc2)NC(=O)[C@@H](Cc2c(Br)[nH]c3ccccc23)N(C)C(=O)[C@H](C)NC(=O)[C@@H](C)C1 [JASPAMIDE]
Given back: -0.08

Asked: # lookup: log10 of GI50 of "O=C(NCCN1C(=O)CN=C(c2ccc(Cl)cc2)c2cc(Cl)ccc21)OCc1ccccc1"
Given back: 1.13

Asked: # lookup: log10 of GI50 of "CCOC(=O)Nc1ccc(S(=O)(=O)Nn2cnnc2)cc1"
Given back: 1.70

Asked: # lookup: log10 of GI50 of "CSc1nc(NC(C)C)c2c(n1)Sc1nc3ccccc3n1N=C2"
Given back: 1.57

Asked: # lookup: log10 of GI50 of Fc1ccc2nc3n(c2c1)C(c1c(F)cccc1F)SC3 (configuration not stated)
Given back: 1.71

Asked: # lookup: log10 of GI50 of COc1cc(C2c3cc4c(cc3[C@@H](Nc3ccc(C(=O)O)cc3)C3COC(=O)[C@H]23)OCO4)cc(OC)c1O (some centres not stated)
Given back: 1.13

Asked: # lookup: log10 of GI50 of "CCCCOP(=O)(OCCCC)/C(C#N)=C/c1ccc(C)o1"
Given back: 1.59

Asked: # lookup: log10 of GI50 of "O=C(/C=C/c1ccccc1)c1cc(Br)ccc1O"
Given back: 1.15

Asked: # lookup: log10 of GI50 of "OCCNc1nc2c(N3CCCC3)nc(N3CCNCC3)nc2nc1NCc1ccccc1"
Given back: 1.21

Asked: # lookup: log10 of GI50 of "CN(C)c1cccc(-c2cc(O)c3cc4c(cc3n2)OCO4)c1"
Given back: -0.55

Asked: # lookup: log10 of GI50 of "S=C1SCN(Cc2ccco2)CN1c1ccc(Br)cc1"
Given back: 0.94

Asked: # lookup: log10 of GI50 of COc1ccc(C(O)CC(O)(C(F)(F)F)C(F)(F)F)cc1 (configuration not stated)
Given back: 1.54

Asked: # lookup: log10 of GI50 of "CCOC(=O)c1csc(NC(=O)CCN2CCOCC2)n1"
Given back: 1.70
